Could you please report measured concentration at 2 h for the items listed next?
Experiment: Test Example 6: determination of the concentration in plasma (unchanged form and metabolite, orbital venous plexus and portal vein, LC/MS)
Assay type: in vivo
Details: hamster, plasma from peripheral blood (orbital venous plexus), oral; 2 h after 30 mg/kg p.o., Syrian hamsters; read-out: Concentration in plasma, unaltered form, peripheral blood
Experimental: Determination of the Concentration in Plasma Syrian hamsters (9-15 weeks of age) under non-fasted conditions were used in the test. […] Concentration of the sample (unchanged form) and that of the metabolite in the supernatant were determined quantitatively by high performance liquid chromatography/mass spectrometry (LC/MS) comparing with chromatogram of synthetic standard.

molecule: CCOC(=O)C(COC(=O)Cc1ccc(OC(=O)c2ccccc2-c2ccc(C(F)(F)F)cc2)cc1)(C(=O)OCC)c1ccccc1 [Example 1-2]
recorded.endpoint: concentration at 2 h
measured.result: < 200 nM

molecule: CCOC(=O)C(COC(=O)Cc1ccc(NC(=O)c2ccccc2-c2ccc(C(F)(F)F)cc2)c(C(=O)N(C)C)c1)(C(=O)OCC)c1ccccc1 [Example 2-5]
recorded.endpoint: concentration at 2 h
measured.result: < 20 nM

molecule: O=C(Cc1ccc(NC(=O)c2ccccc2-c2ccc(C(F)(F)F)cc2)cc1)OCC(C(=O)NCC(F)(F)F)(C(=O)NCC(F)(F)F)c1ccccc1 [Example 1-12]
recorded.endpoint: concentration at 2 h
measured.result: < 200 nM

The record that follows has no concentration at 2 h shown yet.
Recorded concentration at 2 h (molecule COC(=O)C(COC(=O)Cc1ccc(NC(=O)c2ccccc2-c2ccc(C(F)(F)F)cc2)cc1)(C(=O)OC)c1ccccc1 [Example 1-13] ): < 200 nM

* * *

Could you please report measured IC50 for the items listed next?
target: Microsomal triglyceride transfer protein (MTP) from bovine liver (Bos taurus, UniProt P55156); construct: from tissue; host or cells: bovine liver; assay: Test Example 1: inhibition of interliposomal triglyceride (TG) transfer activity by MTP (also used for metabolites in Test Example 8); type: biochemical; conditions: MTP-mediated 14C-triolein transfer between liposomes, 37° C., one hour; read-out: Test Example 1 MTP inhibition IC50
The reply should consist of the numeric value with the unit placed after it.

As a guide, the following entries are already answered.
compound: CCOC(=O)C(COC(=O)CN1CCC(NC(=O)c2ccccc2-c2ccc(C(F)(F)F)cc2)CC1)(C(=O)OCC)c1ccccc1 [Example 8]
IC50: 33 nM
//
compound: O=C(OCCC(C(=O)NCC(F)(F)F)(c1ccccc1)c1ccccc1)c1ccc(NC(=O)c2ccccc2-c2ccc(C(F)(F)F)cc2)cc1 [Example 6-8]
IC50: 50 nM
//
compound: CCCNC(=O)C(CCOC(=O)Cc1cccc(NC(=O)c2ccccc2-c2ccc(C(F)(F)F)cc2)c1C)(C(=O)NCCC)c1ccccc1 [Example 5-11]
IC50: 1.3 nM
//
compound: CCOC(=O)C(COC(=O)Cc1ccc(NC(=O)c2ccccc2-c2ccc(C(F)(F)F)cc2)cc1)(C(=O)OCC)C1CCCCC1 [Example 1-31]
IC50: 84.5 nM
//
compound: CCOC(=O)C(COC(=O)Cc1ccc(NC(=O)c2ccccc2-c2ccc(C(F)(F)F)cc2)cc1)(C(=O)OCC)c1ccccn1 [Example 1-37]
IC50: 3.5 nM

Now take the following compound into account.
Briefly, IC50 measured for O=C(Cc1ccc(NC(=O)c2ccccc2-c2ccc(C(F)(F)F)cc2)cc1)OCC(C(=O)NC1CCCCC1)(C(=O)NC1CCCCC1)c1ccccc1 [Example 1-23] : 54 nM

* * *

system: HepG2 cells; assay: Test Example 2: inhibition of apolipoprotein B secretion from HepG2 cells, ELISA (also used for metabolites in Test Example 8); type: cell-based; conditions: Homo sapiens, 24 hours, apo B in supernatant by ELISA, read-out: Test Example 2 Inhibition of apo B secretion IC50
recorded.endpoint: pIC50
Give bare numbers, as −log10 of the molar value.

Known pIC50 results, listed for orientation:
compound: CCOC(=O)C(CCOC(=O)Cc1cccc(NC(=O)c2ccccc2-c2ccc(C(F)(F)F)cc2)c1OC)(C(=O)OCC)c1ccccc1 [Example 5-13]
pIC50: 8.62
//
compound: CCOC(=O)C(COC(=O)Cc1ccc(NC(=O)c2ccccc2-c2ccc(C)cc2)c(C(=O)N(C)C)c1)(C(=O)OCC)c1ccccc1 [Example 2-88]
pIC50: 8.72

Consider the additional compound presented here.
Value sought: pIC50, system HepG2 cells, item CCC(CC)(COC(=O)Cc1ccc(NC(=O)c2ccccc2-c2ccc(C(F)(F)F)cc2)c(C(=O)N(C)C)c1)c1ccccc1 [Example 2-98] . Result: 9.01

* * *

tested on: HepG2 cells; test: Test Example 2: inhibition of apolipoprotein B secretion from HepG2 cells, ELISA (also used for metabolites in Test Example 8); type: cell-based; conditions: Homo sapiens, 24 hours, apo B in supernatant by ELISA, read-out: Test Example 2 Inhibition of apo B secretion IC50
Kindly state IC50 for each of the entries shown.
Numbers only, in µM.

compound: CCNC(=O)C(COC(=O)Cc1ccc(NC(=O)c2ccccc2-c2ccc(C(F)(F)F)cc2)c(C(=O)N(C)C)c1)(C(=O)NCC)c1ccccc1 [Example 2]
recorded.endpoint: IC50
result.unit: µM
measured.result: 0.0015
--
compound: CCNC(=O)C(COC(=O)Cc1ccc(OC(=O)c2ccccc2-c2ccc(C(F)(F)F)cc2)cc1)(C(=O)NCC)c1ccccc1 [Example 1-39]
recorded.endpoint: IC50
result.unit: µM
measured.result: 0.16
--
compound: CC(=O)N[C@H](COC(=O)Cc1ccc(NC(=O)c2ccccc2-c2ccc(C(F)(F)F)cc2)c(C(=O)N(C)C)c1)c1ccccc1 [Example 2-35]
recorded.endpoint: IC50
result.unit: µM
measured.result: 0.038

Answer for every listed entry: what is its IC50? The entries follow.
1. CCOC(=O)C(COC(=O)Cc1ccc(NC(=O)c2ccccc2-c2ccc(C(F)(F)F)cc2)c(C(=O)N(C)C)c1)(C(=O)OCC)c1ccc(OC)cc1 [Example 2-77]
2. CN(C)C(=O)c1cc(CC(=O)OCC(CO)(CO)c2ccccc2)ccc1NC(=O)c1ccccc1-c1ccc(C(F)(F)F)cc1 [Example 2-103]
3. CCOC(=O)C(CCOC(=O)Cc1ccc(C)c(NC(=O)c2ccccc2-c2ccc(C(F)(F)F)cc2)c1)(C(=O)OCC)c1ccccc1 [Example 5-6]

[0.00274, 0.0426, 0.26]

* * *

Biological target: Microsomal triglyceride transfer protein (MTP) from bovine liver (Bos taurus)
Construct: from tissue; host or cells: bovine liver
Sequence (P55156 12-887): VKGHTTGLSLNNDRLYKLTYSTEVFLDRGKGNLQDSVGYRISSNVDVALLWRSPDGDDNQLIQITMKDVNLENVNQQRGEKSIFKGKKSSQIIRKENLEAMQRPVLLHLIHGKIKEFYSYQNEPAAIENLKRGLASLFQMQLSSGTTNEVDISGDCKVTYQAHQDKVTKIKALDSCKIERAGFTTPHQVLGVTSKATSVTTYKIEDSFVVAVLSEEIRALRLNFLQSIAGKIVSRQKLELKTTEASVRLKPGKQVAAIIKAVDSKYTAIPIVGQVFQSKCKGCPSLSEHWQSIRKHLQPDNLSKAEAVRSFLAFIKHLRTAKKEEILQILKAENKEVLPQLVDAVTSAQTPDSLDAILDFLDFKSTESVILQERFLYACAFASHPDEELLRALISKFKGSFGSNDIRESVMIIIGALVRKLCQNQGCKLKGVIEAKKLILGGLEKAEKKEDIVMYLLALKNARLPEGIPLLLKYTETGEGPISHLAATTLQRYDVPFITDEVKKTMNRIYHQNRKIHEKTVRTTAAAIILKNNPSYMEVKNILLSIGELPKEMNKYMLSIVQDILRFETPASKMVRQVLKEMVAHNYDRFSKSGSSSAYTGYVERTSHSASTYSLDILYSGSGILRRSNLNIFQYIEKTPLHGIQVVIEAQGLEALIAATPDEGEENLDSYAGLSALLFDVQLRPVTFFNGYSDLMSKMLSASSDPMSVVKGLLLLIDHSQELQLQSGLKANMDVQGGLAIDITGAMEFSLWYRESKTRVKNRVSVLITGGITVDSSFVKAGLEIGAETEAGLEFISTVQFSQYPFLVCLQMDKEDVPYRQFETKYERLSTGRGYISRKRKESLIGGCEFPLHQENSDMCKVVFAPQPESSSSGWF
Sequence (P05307 21-510 partner): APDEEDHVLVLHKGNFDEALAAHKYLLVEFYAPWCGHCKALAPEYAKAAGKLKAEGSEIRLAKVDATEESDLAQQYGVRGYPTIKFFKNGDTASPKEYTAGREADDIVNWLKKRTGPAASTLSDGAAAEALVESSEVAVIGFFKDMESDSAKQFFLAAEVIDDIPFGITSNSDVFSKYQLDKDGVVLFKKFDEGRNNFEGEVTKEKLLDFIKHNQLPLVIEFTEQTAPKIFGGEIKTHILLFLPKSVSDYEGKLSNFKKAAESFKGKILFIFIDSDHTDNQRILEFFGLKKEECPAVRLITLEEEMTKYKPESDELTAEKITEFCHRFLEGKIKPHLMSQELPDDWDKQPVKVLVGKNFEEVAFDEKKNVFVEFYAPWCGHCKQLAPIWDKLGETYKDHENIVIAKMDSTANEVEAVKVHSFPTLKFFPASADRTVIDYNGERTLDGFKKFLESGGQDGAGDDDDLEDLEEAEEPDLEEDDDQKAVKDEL
Experiment: Test Example 1: inhibition of interliposomal triglyceride (TG) transfer activity by MTP (also used for metabolites in Test Example 8)
Format: biochemical
Settings: main metabolites of the compounds (Test Example 8); read-out: MTP inhibition IC50
Exercise: for every item that follows, state its recorded IC50.

compound.smiles: COc1cc(CC(=O)O)ccc1NC(=O)c1ccccc1-c1ccc(C(F)(F)F)cc1
target.of.assay: Microsomal triglyceride transfer protein (MTP) from bovine liver (Bos taurus)
recorded.endpoint: IC50
measured.result: > 1000 nM
//
compound.smiles: CCNC(=O)C(CO)(C(=O)NCC)c1ccccc1
target.of.assay: Microsomal triglyceride transfer protein (MTP) from bovine liver (Bos taurus)
recorded.endpoint: IC50
measured.result: > 1000 nM
//
compound.smiles: CCCNC(=O)C(CO)(C(=O)NCCC)c1ccccc1
target.of.assay: Microsomal triglyceride transfer protein (MTP) from bovine liver (Bos taurus)
recorded.endpoint: IC50
measured.result: > 1000 nM
//
compound.smiles: CCOC(=O)C(CO)(C(=O)OCC)c1ccccc1
target.of.assay: Microsomal triglyceride transfer protein (MTP) from bovine liver (Bos taurus)
recorded.endpoint: IC50
measured.result: > 1000 nM
//
compound.smiles: O=C(O)Cc1ccc(NC(=O)c2ccccc2-c2ccc(C(F)(F)F)cc2)cc1
target.of.assay: Microsomal triglyceride transfer protein (MTP) from bovine liver (Bos taurus)
recorded.endpoint: IC50
measured.result: > 1000 nM

Record `CN(C)C(=O)c1cc(CC(=O)O)ccc1NC(=O)c1ccccc1-c1ccc(C(F)(F)F)cc1` / Microsomal triglyceride transfer protein (MTP) from bovine liver (Bos taurus), IC50 recorded as > 10000 nM

Data credit: patent US7625948B2
